- ASSAY SUMMARY: Solubility tests of resorcinol products in alcoholic solvents
- Assay type: physicochemical
- TEST SETTINGS: 2-butanol, organic solvent or mixture, thermodynamic from solid; 20° C., Table 11, by product ratio DBMR/BTMR/DTMR; read-out: Solubility in 2-butanol
METRIC: solubility at 24 h (µg/mL)

{"columns": ["MOLECULE", "METRIC", "PREFIX OPERATOR", "REPORTED VALUE"],
 "data": [
  ["Cc1c(O)c(C(=O)c2ccccc2)cc(C(=O)c2ccccc2)c1O [DBMR, dibenzoylacyl-2-methyl resorcinol]", "solubility at 24 h", "<", 1000],
  ["Cc1cccc(C(=O)c2cc(C(=O)c3cccc(C)c3)c(O)c(C)c2O)c1 [DTMR, ditoluoylacyl-2-methyl resorcinol]", "solubility at 24 h", "=", 1000]
]}
